Taken from the RNAGym collection of RNA variant scans (doi:10.7554/elife.80360).

B1: HDV Ribozyme (parent)
chain: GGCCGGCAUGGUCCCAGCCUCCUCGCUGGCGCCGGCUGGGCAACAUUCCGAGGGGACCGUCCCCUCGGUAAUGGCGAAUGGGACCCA

Variants of: B1
Assay: self-cleavage, relative activity (ratio to wild type); higher = more cleavage; co-transcriptional
Below, each entry is listed with its recorded self-cleavage.
// response body must contain only the number

Below, each entry is followed by its recorded self-cleavage result.
INSERT INTO results (variant_key, test_value) VALUES
  ('C13U G28C', 0),
  ('U9G C61U', 1.05),
  ('C63A A83U', 0.77),
  ('G53A A56C', 0.787),
  ('A45G A71C', 1.01),
  ('C32U G35U', 0.376),
  ('C3U U47A', 0.969),
  ('G10U G39U', 0.346);

Give the measured self-cleavage of G74C C75G .
0.0386

Next entry: C21A C49A
0.157

Next entry: C49A C86G
0.906

Next entry: G54A A71C
0.753

Next entry: A70G G74U
0.65

Next entry: U69G U72A
0.369

Next entry: G10A G67C
0.599

Next entry: C49A G68C
0.849

Next entry: G17A G59A
0.635

Next entry: A70G C86G
1.03

Next entry: G10U U60G
0.724

Next entry: A56U G59U
1.08

Next entry: G39C G81U
0.143

Next entry: C19G G38C
0.0639

Next entry: G25C G82C
0.0326

Next entry: C7G U9C
0

Next entry: C3A C22G
0.0631

Next entry: G55A C64A
0.95
